# Target of assay: hGLP-1R (Homo sapiens)
# Sequence (P43220 24-463): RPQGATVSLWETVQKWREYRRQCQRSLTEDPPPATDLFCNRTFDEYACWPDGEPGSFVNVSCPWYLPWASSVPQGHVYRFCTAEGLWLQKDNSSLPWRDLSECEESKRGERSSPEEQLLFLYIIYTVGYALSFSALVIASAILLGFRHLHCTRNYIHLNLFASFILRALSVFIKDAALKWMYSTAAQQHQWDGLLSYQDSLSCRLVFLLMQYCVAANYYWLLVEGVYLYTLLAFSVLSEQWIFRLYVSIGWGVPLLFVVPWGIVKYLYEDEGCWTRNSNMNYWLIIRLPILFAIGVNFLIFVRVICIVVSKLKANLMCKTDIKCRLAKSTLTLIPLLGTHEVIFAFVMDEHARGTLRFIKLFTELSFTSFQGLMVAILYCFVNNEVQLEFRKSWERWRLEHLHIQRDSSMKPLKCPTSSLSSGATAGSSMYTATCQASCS
# Experimental protocol: Functional cAMP activity in the presence of 1% HSA
# Type: cell-based
# Assay setup: read-out: cAMP Rel EC50, hGLP-1R
Starred links: 1 amine or outer side, 2 acyl side, 3 side chain; linkers in the order of their positions; H or OH if unused. Non-standard residues stand in square brackets, D forms with d. Groups on a side chain read outwards from the residue. *: point of attachment. C20 diacid = O=C(O)CCCCCCCCCCCCCCCCCCC(=O)*; C18 diacid = O=C(O)CCCCCCCCCCCCCCCCC(=O)*; αMePhe(2-F) = C[C@](N)(Cc1ccccc1F)C(=O)O; γGlu = O=C(O)[C@H](CCC(=O)[*:2])N[*:1]; αMe4Pal = C[C@](N)(Cc1ccncc1)C(=O)O; αMeY = C[C@](N)(Cc1ccc(O)cc1)C(=O)O; 4Pal = N[C@@H](Cc1ccncc1)C(=O)O; αMeL = CC(C)C[C@](C)(N)C(=O)O; αMeS = C[C@](N)(CO)C(=O)O; Orn = NCCC[C@H](N)C(=O)O; AEEA = NCCOCCOCC(=O)O; Aib = CC(C)(N)C(=O)O
Metric name: EC50 (nM)

substance="H-Y[Aib]QGT[αMePhe(2-F)]TSDYSKLLDEIAQK([AEEA-γGlu-C20 diacid])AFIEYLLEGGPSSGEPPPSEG-NH2 [Example 303]" target_of_assay="hGLP-1R (Homo sapiens)" result_number=257
substance="H-Y[Aib]QGTFTSD[4Pal]SQ[αMeL]LDKK([γGlu-γGlu-C18 diacid])AQ[αMe4Pal]AFIE[αMe4Pal]LIE[Aib]GPSSGEPPPSGE-NH2 [Example 1123]" target_of_assay="hGLP-1R (Homo sapiens)" result_number=191
substance="H-Y[Aib]QGT[αMePhe(2-F)]TSD[4Pal][αMeS]I[αMeL]LD[Orn]K([AEEA-γGlu-C18 diacid])AQ[αMe4Pal]EFI[dE][αMeY]LVEGGPSSGEPPPTGE-NH2 [Example 1153]" target_of_assay="hGLP-1R (Homo sapiens)" result_number=52.7
substance="H-Y[Aib]QGTFTSDYSI[αMeL]LDKIAAK([AEEA-AEEA-γGlu-C20 diacid])[Orn]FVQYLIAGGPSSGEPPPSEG-NH2 [Example 308]" target_of_assay="hGLP-1R (Homo sapiens)" result_number=477
substance="H-Y[Aib]QGT[αMePhe(2-F)]TSD[4Pal][αMeS]I[αMeL]LD[Orn]K([AEEA-γGlu-C18 diacid])AQ[αMe4Pal]EFI[dE][αMeY]LIEGGPSSGAPPPSGSEE-NH2 [Example 713]" target_of_assay="hGLP-1R (Homo sapiens)" result_number=37.7

----------
# Target of assay: hGcgR (Homo sapiens, UniProt P47871)
# Sequence (P47871 26-477): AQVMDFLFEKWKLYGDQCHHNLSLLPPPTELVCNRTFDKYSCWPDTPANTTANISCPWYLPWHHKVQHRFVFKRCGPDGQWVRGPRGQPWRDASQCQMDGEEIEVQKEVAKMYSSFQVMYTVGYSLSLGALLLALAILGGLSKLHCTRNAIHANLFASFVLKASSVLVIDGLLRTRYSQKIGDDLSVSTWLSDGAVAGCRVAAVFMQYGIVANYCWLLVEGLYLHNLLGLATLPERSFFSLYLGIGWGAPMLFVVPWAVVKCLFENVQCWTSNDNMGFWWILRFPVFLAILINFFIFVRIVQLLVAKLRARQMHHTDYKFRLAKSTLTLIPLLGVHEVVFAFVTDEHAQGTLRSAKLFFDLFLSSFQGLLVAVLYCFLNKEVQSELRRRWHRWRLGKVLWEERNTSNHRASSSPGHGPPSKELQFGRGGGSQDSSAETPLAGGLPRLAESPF
# Experimental protocol: Functional cAMP activation in the presence of 0.1% casein (no HSA);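 further: intracellular cAMP rise after 30 min at 37 °C, read by HTRF against a cAMP standard curve, scaled from buffer only (0%) to maximal control ligand response (100%)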
# Assay type: cell-based
# Assay setup: 0.1% casein, no HSA; geometric mean; read-out: Relative cAMP EC50, hGcgR
pEC50: −log10 of the molar value. Starred links: 1 amine or outer side, 2 acyl side, 3 side chain; linkers in the order of their positions; H or OH if unused. Non-standard residues stand in square brackets, D forms with d. Groups on a side chain read outwards from the residue. No end group written: not given here. *: point of attachment. C18 diacid = O=C(O)CCCCCCCCCCCCCCCCC(=O)*; αMePhe(2-F) = C[C@](N)(Cc1ccccc1F)C(=O)O; γGlu = O=C(O)[C@H](CCC(=O)[*:2])N[*:1]; αMe4Pal = C[C@](N)(Cc1ccncc1)C(=O)O; αMeY = C[C@](N)(Cc1ccc(O)cc1)C(=O)O; 4Pal = N[C@@H](Cc1ccncc1)C(=O)O; αMeL = CC(C)C[C@](C)(N)C(=O)O; αMeS = C[C@](N)(CO)C(=O)O; Orn = NCCC[C@H](N)C(=O)O; AEEA = NCCOCCOCC(=O)O; Aib = CC(C)(N)C(=O)O
Reported pEC50 values follow for various substances
Metric name: pEC50

substance="H-Y[Aib]QGT[αMePhe(2-F)]TSD[4Pal][αMeS]I[αMeL]LD[Orn]K([γGlu-γGlu-C18 diacid])AQ[αMe4Pal]EFI[dE][αMeY]LIEGGPPS[Aib][Orn]PPP[Orn]GS-NH2 [Example 1226]" metric_name=pEC50 result_number=8.78
substance="H-Y[Aib]QGT[αMePhe(2-F)]TSD[4Pal][αMeS]I[αMeL]LD[Orn]K([γGlu-γGlu-C18 diacid])AQ[αMe4Pal]EFI[dE][αMeY]LIEGGPSSGAPPPEGGGEE-NH2 [Example 1220]" metric_name=pEC50 result_number=8.80
substance="Y[Aib]QGT[αMePhe(2-F)]TSD[4Pal][αMeS]I[αMeL]LD[Orn]K([AEEA-γGlu-C18 diacid])AQ[αMe4Pal]EFI[dE][αMeY]LIEGGPPS[Aib]EPPP[Orn]GE-NH2 [Example 1193]" metric_name=pEC50 result_number=8.81
substance="H-Y[Aib]Q[dA]T[αMePhe(2-F)]TSD[4Pal][αMeS]I[αMeL]LD[Orn]K([AEEA-γGlu-C18 diacid])AQ[Aib]EFI[dE][αMeY]LIEGGPSSGAPPPSGSE-NH2 [Example 1222]" metric_name=pEC50 result_number=8.59
substance="Y[Aib]QGT[αMePhe(2-F)]TSD[4Pal][αMeS]I[αMeL]LD[Orn]K([AEEA-γGlu-C18 diacid])AQ[αMe4Pal]EFI[dE][αMeY]LIEGGPPS[Aib][Orn]PPPSGSE-NH2 [Example 1198]" metric_name=pEC50 result_number=8.74
substance="H-Y[Aib]QGT[αMePhe(2-F)]TSD[4Pal][αMeS]I[αMeL]LD[Orn][Orn]([AEEA-γGlu-C18 diacid])AQ[αMe4Pal]EFI[dE][αMeY]LIEGGPSSGAPPPSGSE-NH2 [Example 1212]" metric_name=pEC50 result_number=8.77
substance="H-Y[Aib]QGT[αMePhe(2-F)]TSD[4Pal][αMeS]I[αMeL]LD[Orn]K([AEEA-γGlu-C18 diacid])AQ[αMe4Pal]EFI[dE][αMeY]LIEGGPPS[Aib][Orn]PPP[Orn]GE-NH2 [Example 1195]" metric_name=pEC50 result_number=8.76
substance="H-Y[Aib]QGT[αMePhe(2-F)]TSD[4Pal][αMeS]I[αMeL]LD[Orn]K([AEEA-γGlu-C18 diacid])AQ[αMe4Pal]EFI[dE][αMeY]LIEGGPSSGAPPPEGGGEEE-NH2 [Example 1217]" metric_name=pEC50 result_number=8.70
substance="H-Y[Aib]QGT[αMePhe(2-F)]TSD[4Pal][αMeS]I[αMeL]LD[Orn]QAQ[αMe4Pal]EFI[dE][αMeY]LVEGGPSSGAPPPSGS-NH2 [Example 1231]" metric_name=pEC50 result_number=7.80
substance="H-Y[Aib]Q[dA]T[αMePhe(2-F)]TSD[4Pal][αMeS]I[αMeL]LD[Orn]K([AEEA-γGlu-C18 diacid])AQ[Aib]EFI[dE][αMeY]LVEGGPSSGAPPPSGS-NH2 [Example 1204]" metric_name=pEC50 result_number=8.46
substance="H-Y[Aib]Q[dA]T[αMePhe(2-F)]TSD[4Pal]SI[αMeL]LD[Orn]K([AEEA-γGlu-C18 diacid])AQ[αMe4Pal]EFI[dE][αMeY]LIEGGPSSGAPPPSGS-NH2 [Example 1206]" metric_name=pEC50 result_number=8.75
substance="H-Y[Aib]QGT[αMePhe(2-F)]TSD[4Pal][αMeS]I[αMeL]LD[Orn]K([AEEA-γGlu-C18 diacid])AQ[αMe4Pal]EFI[dE][αMeY]LIEGGPSSGAPPPSGGGEEE-NH2 [Example 1215]" metric_name=pEC50 result_number=8.68
substance="H-Y[Aib]QGT[αMePhe(2-F)]TSD[4Pal][αMeS]I[αMeL]LD[Orn]QAQ[αMe4Pal]EFI[dE][αMeY]LIEGGPSSGAPPPSGS-NH2 [Example 1232]" metric_name=pEC50 result_number=8.17
substance="H-Y[Aib]QGT[αMePhe(2-F)]TSD[4Pal][αMeS]I[αMeL]LD[Orn]K([AEEA-AEEA-γGlu-C18 diacid])AQ[αMe4Pal]EFI[dE][αMeY]LIEGGPSSGEPPPSGS-NH2 [Example 1208]" metric_name=pEC50 result_number=8.45
substance="Y[Aib]QGT[αMePhe(2-F)]TSD[4Pal][αMeS]I[αMeL]LD[Orn]K([AEEA-γGlu-C18 diacid])AQ[αMe4Pal]EFI[dE][αMeY]LIEGGPPS[Aib][Orn]PPP[Orn]SE-NH2 [Example 1196]" metric_name=pEC50 result_number=8.72
substance="Y[Aib]Q[dA]T[αMePhe(2-F)]TSD[4Pal][αMeS]I[αMeL]LD[Orn]K([AEEA-γGlu-C18 diacid])AQ[Aib]EFI[dE][αMeY]LIEGGPSSGAPPPSGS-NH2 [Example 1203]" metric_name=pEC50 result_number=8.59
substance="H-Y[Aib]Q[dA]T[αMePhe(2-F)]TSD[4Pal][αMeS]I[αMeL]LD[Orn]K([γGlu-γGlu-C18 diacid])AQ[Aib]EFI[dE][αMeY]LIEGGPSSGAPPPSGGGE-NH2 [Example 1225]" metric_name=pEC50 result_number=8.61
substance="H-Y[Aib]QGT[αMePhe(2-F)]TSD[4Pal][αMeS]I[αMeL]LD[Orn]K([AEEA-γGlu-C18 diacid])AQ[αMe4Pal]EFI[dE][αMeY]LIEGGPPSGEPPPEGE-NH2 [Example 1191]" metric_name=pEC50 result_number=8.51
substance="H-Y[Aib]QGT[αMePhe(2-F)]TSD[4Pal][αMeS]I[αMeL]LD[Orn]K([γGlu-γGlu-C18 diacid])AQ[αMe4Pal]EFI[dE][αMeY]LIEGGPPS[Aib][Orn]PPP[Orn]GE-NH2 [Example 1227]" metric_name=pEC50 result_number=8.70
